Sourced from patent US20260258000A1

Assay explanation: Maximum tolerated dose (MTD) study
Format: in vivo
Setup conditions: mouse, in vivo; IP, NSG mice; read-out: maximum tolerated dosage (MTD)
Measured property: MTD at 3 treatment cycles of 5 consecutive daily doses (mg/kg)
Your answer should be a plain number; it is taken to be in mg/kg.

Q. Which MTD at 3 treatment cycles of 5 consecutive daily doses value is on record for CCc1nc(N)nc(N)c1-c1ccc(N(C)Cc2ccccc2)c([N+](=O)[O-])c1 ?
A. 25
